Every entry's value here was drawn from ChEMBL document CHEMBL4342522.

- PROCEDURE_SUMMARY: Volume of distribution at steady state in rat at 1 mg/kg, iv
- Type: ADME, organism-based
- APPLIED_CONDITIONS: in vivo, read-out: Vdss
Vd listing for selected compounds.
REPORTED_PROPERTY: Vd (L/kg)

line_notation=CCNC(=O)c1cc2c(-c3cc(C(C)(C)O)ccc3Oc3c(C)cc(F)cc3C)cn(C)c(=O)c2[nH]1 quantity_unit=L/kg measured=5.3
line_notation=CCNC(=O)c1cc2c(-c3cc(S(=O)(=O)CC)ccc3Oc3c(C)cccc3C)cn(C)c(=O)c2[nH]1 quantity_unit=L/kg measured=3.5

---

# reported Papp; entries follow
- PROCEDURE_SUMMARY: Permeability in dog MDCK cells by PAMPA
- Assay type: ADME, cell-based, Canis lupus familiaris
- APPLIED_CONDITIONS: read-out: permeability
REPORTED_PROPERTY: Papp (×10⁻⁶ cm/s)

line_notation=CCNC(=O)c1cc2c(-c3cc(S(=O)(=O)CC)ccc3-c3cccc4cc[nH]c34)cn(C)c(=O)c2[nH]1 measured=3.5
line_notation=CCNC(=O)c1cc2c(-c3cc(S(=O)(=O)CC)ccc3Oc3cc(C)cc(C)c3)cn(C)c(=O)c2[nH]1 measured=3.1
line_notation=CCNC(=O)c1cc2c(-c3cc(C4(O)CCOCC4)ccc3Oc3c(C)cc(F)cc3C)cn(C)c(=O)c2[nH]1 measured=1.47
line_notation=CCNC(=O)c1cc2c(-c3cc(S(=O)(=O)CC)ccc3Oc3c(C)cc(Cl)cc3C)cn(C)c(=O)c2[nH]1 measured=1.46

---

- PROCEDURE_SUMMARY: Permeability in dog MDCK cells by PAMPA
- Format: ADME, cell-based, Canis lupus familiaris
- APPLIED_CONDITIONS: read-out: permeability
REPORTED_PROPERTY: Papp

molecule=CCNC(=O)c1cc2c(-c3cc(NC(=O)OC)ccc3Oc3c(C)cc(F)cc3C)cn(C)c(=O)c2[nH]1 measured="0.92 ×10⁻⁶ cm/s"
molecule=CCNC(=O)c1cc2c(-c3cc(S(=O)(=O)CC)ccc3Oc3c(C)cc(F)cc3C)cn(C)c(=O)c2[nH]1 measured="6.12 ×10⁻⁶ cm/s"
molecule=CCNC(=O)c1cc2c(-c3cc(S(C)(=O)=O)ccc3Oc3ccc(F)cc3F)cn(C)c(=O)c2[nH]1 measured="10.8 ×10⁻⁶ cm/s"
molecule=CCNC(=O)c1cc2c(-c3cc(S(=O)(=O)CC)ccc3Oc3c(C)cccc3C(F)F)cn(C)c(=O)c2[nH]1 measured="15.2 ×10⁻⁶ cm/s"
molecule=CCNC(=O)c1cc2c(-c3cc(S(=O)(=O)CC)ccc3Oc3c(C)cccc3C)cn(C)c(=O)c2[nH]1 measured="7.68 ×10⁻⁶ cm/s"
molecule=CCNC(=O)c1cc2c(-c3cc(S(C)(=O)=O)ccc3Oc3c(C)cccc3C)cn(C)c(=O)c2[nH]1 measured="10.7 ×10⁻⁶ cm/s"
molecule="Cc1cc(F)cc(C)c1Oc1ccc(C(C)(C)O)cc1-c1cn(C)c(=O)c2[nH]c(C(=O)NC3(C)CC3(F)F)cc12 (stereo not drawn)" measured="0.76 ×10⁻⁶ cm/s"
molecule=CCNC(=O)c1cc2c(-c3cc(S(=O)(=O)CC)ccc3Oc3ccccc3C(C)(C)C)cn(C)c(=O)c2[nH]1 measured="5.6 ×10⁻⁶ cm/s"

---

Quick reference for pIC50 among some compounds
- System: NCI-H1299
- PROCEDURE_SUMMARY: Antiproliferative activity against human H1299 cells assessed as reduction in cell viability after 5 days by CellTiter-Glo assay
- Type: functional, cell-based
- APPLIED_CONDITIONS: NCI-H1299, 120 h
pIC50: −log10 of the molar value.
REPORTED_PROPERTY: pIC50

line_notation=CCNC(=O)c1cc2c(-c3cc(S(=O)(=O)C4CC4)ccc3Oc3c(C)cccc3C)cn(C)c(=O)c2[nH]1 reported_property=pIC50 modifier_sign== measured=6.14
line_notation=CCNC(=O)c1cc2c(-c3cc(S(=O)(=O)CC)ccc3-c3c(C)cccc3C)cn(C)c(=O)c2[nH]1 reported_property=pIC50 modifier_sign=< measured=5.00
line_notation=CCN(C)C(=O)c1cc2c(-c3cc(S(C)(=O)=O)ccc3Oc3ccc(F)cc3F)cn(C)c(=O)c2[nH]1 reported_property=pIC50 modifier_sign== measured=6.41
line_notation=CCNC(=O)c1cc2c(-c3cc(S(=O)(=O)CC)ccc3Oc3c(C)cccc3Br)cn(C)c(=O)c2[nH]1 reported_property=pIC50 modifier_sign== measured=6.14
line_notation=CCNC(=O)c1cc2c(-c3cc(S(=O)(=O)CC)ccc3Oc3c(C)cccc3C(F)(F)F)cn(C)c(=O)c2[nH]1 reported_property=pIC50 modifier_sign== measured=5.92
line_notation=CCNC(=O)c1cc2c(-c3cc(S(=O)(=O)CC)ccc3Oc3c(C)cccc3C(F)F)cn(C)c(=O)c2[nH]1 reported_property=pIC50 modifier_sign== measured=6.06
line_notation=CCNC(=O)c1cc2c(-c3cc(S(=O)(=O)CC)ccc3-c3ccccc3C)cn(C)c(=O)c2[nH]1 reported_property=pIC50 modifier_sign== measured=5.59
line_notation=CCNC(=O)c1cc2c(-c3cc(NS(=O)(=O)CC)ccc3Oc3c(C)cccc3C)cn(C)c(=O)c2[nH]1 reported_property=pIC50 modifier_sign== measured=6.52
line_notation=CCNC(=O)c1cc2c(-c3cc(NC(C)=O)ccc3Oc3c(C)cc(F)cc3C)cn(C)c(=O)c2[nH]1 reported_property=pIC50 modifier_sign== measured=5.80
line_notation=CCNC(=O)c1cc2c(-c3cc(C(=O)O)ccc3Oc3c(C)cccc3C)cn(C)c(=O)c2[nH]1 reported_property=pIC50 modifier_sign=< measured=5.00
line_notation=CCNC(=O)c1cc2c(-c3cc(S(=O)(=O)CC)ccc3Oc3cc(C)cc(C)c3)cn(C)c(=O)c2[nH]1 reported_property=pIC50 modifier_sign== measured=7.03
line_notation=CCNC(=O)c1cc2c(-c3cc(C(C)(C)O)ccc3Oc3c(C)cccc3C)cn(C)c(=O)c2[nH]1 reported_property=pIC50 modifier_sign== measured=5.92

---

- PROCEDURE_SUMMARY: Unbound hepatic clearance in mouse liver microsomes
- Type: ADME, Microsome
REPORTED_PROPERTY: CL free

line_notation=CCNC(=O)c1cc2c(-c3cc(S(=O)(=O)CC)ccc3Oc3c(C)cccc3C)cn(C)c(=O)c2[nH]1 reported_property="CL free" measured="700 mL/min/kg"
line_notation=Cc1cc(F)cc(C)c1Oc1ccc(C(C)(C)O)cc1-c1cn(C)c(=O)c2[nH]c(C(=O)NC(C)(C)C)cc12 reported_property="CL free" measured="8670 mL/min/kg"
line_notation=Cc1cc(F)cc(C)c1Oc1ccc(C(C)(C)O)cc1-c1cn(C)c(=O)c2[nH]c(C(=O)NC3CC3)cc12 reported_property="CL free" measured="3330 mL/min/kg"
line_notation=CCNC(=O)c1cc2c(-c3cc(NC(C)=O)ccc3Oc3c(C)cccc3C)cn(C)c(=O)c2[nH]1 reported_property="CL free" measured="2000 mL/min/kg"
line_notation=CNC(=O)c1cc2c(-c3cc(C(C)(C)O)ccc3Oc3c(C)cc(F)cc3C)cn(C)c(=O)c2[nH]1 reported_property="CL free" measured="550 mL/min/kg"
line_notation=CCNC(=O)c1cc2c(-c3cc(S(=O)(=O)CC)ccc3Oc3ccccc3Cl)cn(C)c(=O)c2[nH]1 reported_property="CL free" measured="1200 mL/min/kg"
line_notation=Cc1cc(F)cc(C)c1Oc1ccc(C(C)(C)O)cc1-c1cn(C)c(=O)c2[nH]c(C(=O)NC34CC(C3)C4)cc12 reported_property="CL free" measured="11800 mL/min/kg"
line_notation=CCNC(=O)c1cc2c(-c3cc(S(C)(=O)=O)ccc3Oc3ccc(F)cc3F)cn(C)c(=O)c2[nH]1 reported_property="CL free" measured="< 91.7 mL/min/kg"
line_notation=CCNC(=O)c1cc2c(-c3cc(C4(O)CCC4)ccc3Oc3c(C)cc(F)cc3C)cn(C)c(=O)c2[nH]1 reported_property="CL free" measured="15700 mL/min/kg"
line_notation=CCNC(=O)c1cc2c(-c3cc(NC(=O)OC)ccc3Oc3c(C)cc(F)cc3C)cn(C)c(=O)c2[nH]1 reported_property="CL free" measured="6330 mL/min/kg"
line_notation=CCNC(=O)c1cc2c(-c3cc(S(=O)(=O)CC)ccc3Oc3c(C)cccc3C(F)F)cn(C)c(=O)c2[nH]1 reported_property="CL free" measured="900 mL/min/kg"
line_notation=CCNC(=O)c1cc2c(-c3cc(S(C)(=O)=O)ccc3Nc3c(C)cccc3C)cn(C)c(=O)c2[nH]1 reported_property="CL free" measured="483 mL/min/kg"
line_notation=CCNC(=O)c1cc2c(-c3cc(S(C)(=O)=O)ccc3Oc3c(C)cccc3C)cn(C)c(=O)c2[nH]1 reported_property="CL free" measured="550 mL/min/kg"
line_notation=CCNC(=O)c1cc2c(-c3ccccc3Cc3c(C)cccc3C)cn(C)c(=O)c2[nH]1 reported_property="CL free" measured="38300 mL/min/kg"
line_notation=CCNC(=O)c1cc2c(-c3cc(S(=O)(=O)CC)ccc3Oc3cc(C)cc(C)c3)cn(C)c(=O)c2[nH]1 reported_property="CL free" measured="1600 mL/min/kg"
line_notation=CCNC(=O)c1cc2c(-c3cc(S(=O)(=O)C4CC4)ccc3Oc3c(C)cccc3C)cn(C)c(=O)c2[nH]1 reported_property="CL free" measured="1720 mL/min/kg"
line_notation=CCNC(=O)c1cc2c(-c3cc(S(=O)(=O)CC)ccc3Oc3ccc(F)cc3F)cn(C)c(=O)c2[nH]1 reported_property="CL free" measured="< 103 mL/min/kg"
